readout-type: melting point

- compound: "N#Cc1c(Cl)nc(Cl)nc1N1CCSCC1"
  melting point: "180 °C"
- compound: "COc1ccc2c(c1)CCc1c(C#N)cccc1S2"
  melting point: "129 to 130 °C"
- compound: "CC(=NOCCOc1ccc(C[C@H](Oc2ccc(C(C)(C)C)cc2)C(=O)O)cc1)c1ccc(-c2ccccn2)cc1"
  melting point: "148 to 150 °C"
- compound: "CC(C)(C)C(=O)COc1ccc(Cl)cc1"
  melting point: "58 °C"
- compound: "CN(C(=O)Oc1ccc([N+](=O)[O-])cc1)c1ccc(-c2ncn(-c3ccc(OC(F)(F)F)cc3)n2)cc1"
  melting point: "145 to 147 °C"

List melting point for every entry below, keeping the order given.
1. CSc1cc(C)nc(SC)c1NC(=O)CCCBr
2. CCCCCCn1c(CN2CCC[C@H]2C(=O)O)nc2cc(-c3ccccc3-c3nn[nH]n3)ccc21

139 to 140 °C
150 to 155 °C

----------
readout-type: melting point

Some compounds with recorded melting point:
- compound: "CCCCCCCCCCCCOc1ccc(CO)cc1"
  value: "66.5 to 67 °C"
- compound: "COCn1nc(-c2cc(C(C)(C)C)c(O)c(C(C)(C)C)c2)c2cccnc21"
  value: "113 to 115 °C"
- compound: "CN(CCOc1ccc(CC(Sc2ccc(Cl)cc2)C(=O)O)cc1)c1nc2ccccc2o1 (centres undefined)"
  value: "156 to 157 °C"

What does the data say about its melting point? Entry: CC(=O)c1ccc(OCc2cccc(N)c2)cc1O
153 to 154 °C

----------
Record form. Attribute: melting point. Fill in for each entry.

Some compounds with recorded melting point:
- compound: "CC(C)c1ccccc1Nc1nc(N)nc2c1-c1ccccc1C2"
  value: "193 to 195 °C"
- compound: "O=C(O)CCN(O)CCC(=O)O"
  value: "148 to 149 °C"
- compound: "COC(=O)c1cc(C)c(C(OC(=O)C(C)c2ccc3cc(OC)ccc3c2)c2cc(-n3ccnc3)ccc2C)c(C)c1 (configuration not stated)"
  value: "115 to 117 °C"
- compound: "CCN(CC)C(=O)c1cc(-c2ccc(C)cc2)nc2ccccc12"
  value: "52 °C"
- compound: "O=C(c1ccccc1)n1c2c(c3ccccc31)CC(CO)CC2 (configuration not stated)"
  value: "105 to 107 °C"

List melting point for every entry below, keeping the order given.
1. CCC1OC(=O)N(CCc2ccc(NC(=O)c3cccs3)cc2)N=C1c1ccc(OC)c(OC)c1 (configuration not stated)
2. CC(C)Oc1c(C(N)=O)oc2ccc(OCc3ccccc3)cc12
3. CCOC(=O)c1cc(-c2nnnn2C)c(-c2ccc(F)cc2)s1
4. CCN(CC)c1ccc(C=CC2=NC(C#N)=C(C#N)N=CC2)cc1
5. CCc1c(OC)nc2nc(-c3nc(C)no3)cn2c1C

["197 °C", "158 to 160 °C", "132 to 133 °C", "> 300 °C", "204 to 205 °C"]

----------
Record form. Attribute: melting point. Fill in for each entry.

- compound: "CC(=O)c1c(C)[nH]c(Cc2ccccc2)c1C"
  readout-type: "melting point"
  value: "166 to 167 °C"
- compound: "Cc1cc(Br)c2[nH]c(=O)n(CCCN3CC=C(c4ccc(Cl)cc4)CC3)c(=O)c2c1"
  readout-type: "melting point"
  value: "212 to 214 °C"
- compound: "CC(=O)Nc1ccc([N+](=O)[O-])cc1OCC1CO1 (stereo unspecified)"
  readout-type: "melting point"
  value: "164 °C"
- compound: "N#Cc1ccc(OCCC2CCN(c3cc(Cl)nnc3Cl)CC2)cc1"
  readout-type: "melting point"
  value: "138 to 139 °C"
- compound: "COc1cc(C(=O)O)ccc1Cc1c(Cl)n(C)c2ccc(CC(C)NC(=O)N(C)C)cc12 (stereo unspecified)"
  readout-type: "melting point"
  value: "171 to 173 °C"

Switching to the query record.
What does the data say about its melting point? Entry: CN(C)C=CC(=O)C(c1ccccc1)c1ccccc1
93 to 94 °C

----------
readout-type: melting point

- molecule: "CCCCc1nc(C(C)(C)O)c(C(=O)OCc2oc(=O)oc2C)n1Cc1ccc(-c2ccccc2C(=O)O)cc1"
  value: "> 70 °C"
- molecule: "CCCCCCCC(=O)c1cc2sc3sccc3c2s1"
  value: "130 to 131 °C"
- molecule: "COC(=O)C1Oc2ccc(OC)cc2C(C)(c2ccccc2)O1 (stereo not given)"
  value: "70 to 71 °C"
- molecule: "CN1Cc2c(-c3cccs3)ncn2-c2cccc(Cl)c2C1=O"
  value: "222 to 223 °C"

What does the data say about its melting point? Entry: Cc1ccc(F)cc1NC(=O)c1cc([N+](=O)[O-])ccc1NC(=O)CF
217 to 219 °C

----------
Record form. Attribute: melting point. Fill in for each entry.

Some molecules with recorded melting point:
- molecule: "CC(C)Oc1cccc(OC(=O)NCc2c(-c3ccccc3)c3cc(Cl)ccc3c(=O)n2C)c1"
  value: "158 to 160 °C"
- molecule: "CN1C2CCC1CC(O)(c1ccccc1)C2 (centres undefined)"
  value: "157 to 159 °C"
- molecule: "CCOC(=O)CCc1ccc(OC(C)C)nc1Oc1ccc(Cl)cc1Cl"
  value: "42.5 to 43.5 °C"

List melting point for every entry below, keeping the order given.
1. CCOc1ccc2c(c1)C(=O)CCC2
2. CNC(=O)c1cccc(NC(=O)Cc2cccc(OCc3ccccc3)c2)c1
3. CCOc1nc(=O)n([C@H]2CS[C@@H](CO)O2)cc1F (relative stereo)

["34 to 36 °C", "150 °C", "162 to 164 °C"]

List melting point for every entry below, keeping the order given.
1. COc1c(C)c(C)c(OC)c(CCCOc2ccc(CC3SC(=O)NC3=O)cc2)c1C (centres undefined)
2. O=C1NC2CCC(Cc3ccc(O)cc3)CC2CC1CO (centres undefined)
3. N#CCCCCCn1nc(-c2c(-c3ccccc3)nn3ccccc23)ccc1=O

["111 to 113 °C", "126 to 128 °C", "120 to 122 °C"]

List melting point for every entry below, keeping the order given.
1. COc1ccc(C(=O)O)c(OCc2ccccc2)c1
2. COC(=O)CCc1cc2cc(Cl)ccc2n1S(=O)(=O)c1cc(OC)ccc1OC
3. NS(=O)(=O)c1ccc2c(c1)C(=O)C1(CCOC1=O)O2 (centres undefined)

99 to 101 °C
120 to 124 °C
202 to 215 °C

List melting point for every entry below, keeping the order given.
1. O=C1Nc2cnncc2C(=O)C1c1c(F)cc(F)cc1F (centres undefined)
2. O=C(O)C(Cc1ccc(Cl)cc1Cl)c1c(Cl)cccc1Cl (centres undefined)

["> 300 °C", "220 to 222 °C"]

List melting point for every entry below, keeping the order given.
1. COC(=O)/C=C/Oc1ccc(Oc2ccc(F)cc2F)c(NS(C)(=O)=O)c1
2. O=c1ccc2c(-c3cccc(O)c3)nccc2[nH]1
3. CC(C)(C)c1cc(N2CCCC2=O)cc(C(C)(C)C)c1O
4. N#Cc1c(N2CCCCC2)[nH]c2cccnc12
5. CNC(=O)N(c1ccccc1)c1ccccc1

["98.5 to 98.9 °C", "297 to 299 °C", "173 to 175 °C", "241 to 242 °C", "170 °C"]

----------
Record form. Attribute: melting point. Fill in for each entry.

Some compounds with recorded melting point:
- compound: "CN(C)C(c1cccc(F)c1)C1CCC(=O)CC1 (centres undefined)"
  melting point: "72 to 75 °C"
- compound: "O=C(CN(C(=O)CCl)C1Cc2ccccc2C1)OCc1ccccc1"
  melting point: "99.5 to 100 °C"
- compound: "Cc1c(Cl)nc(Br)n1S(=O)(=O)c1cccnc1Cl"
  melting point: "144 to 146 °C"
- compound: "COC(=O)c1ccccc1S(=O)(=O)N(n1cnn(-c2nc(OC)cc(OC)n2)c1=O)S(=O)(=O)c1ccccc1C(=O)OC"
  melting point: "176 °C"
- compound: "COc1cccc(CNC(=O)C(C)(C)COc2cccc3nc(C)c(C(=O)O)c(N)c23)c1"
  melting point: "172 to 174 °C"
- compound: "Cc1cc(C)n(O)c(=O)c1Cc1ccccc1"
  melting point: "148 °C"

List melting point for every entry below, keeping the order given.
1. COc1ccc(CN2CCc3cc(O)ccc3C2)cc1OC
2. O=C(O)CN1C(=O)C(=Cc2ccc(C(=O)O)cc2)SC1=S
3. CC(C)Oc1ccc(C2Cc3ccccc3C(=O)N2C)cc1 (centres undefined)

119 to 122 °C
> 300 °C
115 to 116 °C

----------
readout-type: melting point

Some molecules with recorded melting point:
- molecule: "O=C(O)C1COC(C(F)(F)F)(C(F)(F)F)O1 (centres undefined)"
  readout-type: "melting point"
  value: "62 to 63 °C"
- molecule: "CCOC(=O)C1C(=O)Nc2ccccc2SC1c1ccc(C)cc1 (centres undefined)"
  readout-type: "melting point"
  value: "185 °C"
- molecule: "O=C(O)C(CCCc1ccccc1)NS(=O)(=O)c1ccc(N2CCC(c3ccccc3)CC2)cc1 (centres undefined)"
  readout-type: "melting point"
  value: "59 to 62 °C"
- molecule: "Cn1c([N+](=O)[O-])cnc1COc1ccc(C#N)cc1"
  readout-type: "melting point"
  value: "130 °C"
- molecule: "CC(CNC(=O)c1ccc(-c2ccc(Cl)cc2)cc1F)c1ccc(CN2CCCC2)cc1 (centres undefined)"
  readout-type: "melting point"
  value: "119 to 121 °C"

List melting point for every entry below, keeping the order given.
1. Cc1c(C)c2c(c(C)c1NC(=O)CC(C)(C)C)C(c1ccc(-c3ccccc3)cc1)CO2 (centres undefined)
2. Nc1ccc(Br)cc1CC(F)(F)F
3. O=C(O)Cc1c(C(=O)c2ccccc2)[nH]c2ccc(Cl)c(Cl)c12

["218 to 219 °C", "100 to 101 °C", "206 to 210 °C"]

What does the data say about its melting point? Entry: CC(C)n1nc(-c2c(-c3ccccc3)nc(N)nc2-n2ccnc2)ccc1=O
255 to 258 °C
